Below, each entry is listed with its recorded chromatographic logP.
assay: physchem; format: physicochemical; details: Table 3, compounds of formula (1); method [a]: LC-UV, acidic range, 0.1% formic acid in water and acetonitrile

- substance_smiles: "O=C(O)c1cc(Cl)ncc1Oc1cccc(C(F)(F)F)c1"
  chromatographic logP: 2.84

Lookup: Return value of chromatographic logP for input COC(=O)c1cc(Cl)ncc1Oc1cccc(C(F)(F)F)c1 , no commentary.
Found: 3.84

----------
Below, each entry is listed with its recorded chromatographic logP.
Experiment: physchem
Assay type: physicochemical
Settings: Table 1, compounds of formula (I); method [a]: LC-UV, acidic range, 0.1% formic acid in water and acetonitrile
Description: Measurement of Log P values as provided herein was performed according to EEC directive 79/831 Annex V.A8 by HPLC (High Performance Liquid Chromatography) on reversed phase columns with the following methods: • ^[a] If more than one Log P value is available within the same method, all the values are given and separated by “+”. Lambda-max-values were determined using UV-spectra from 200 nm to 400 nm and the peak values of the chromatographic signals
// print number alone

Example cases with answers are listed next.
- molecule: "Cc1ccc(CC2CON=C(c3cc(N4CCCC4)ncc3Oc3cccc(C(F)(F)F)c3)N2)cc1 (racemic)"
  property_name: "chromatographic logP"
  endpoint_result: 3.5
- molecule: "Cc1ccc(CC2CCN=C(c3cc(Cl)ncc3Oc3cccc(C(F)(F)F)c3)N2)c(C)c1 (racemic)"
  property_name: "chromatographic logP"
  endpoint_result: 2.62
- molecule: "Cc1ccc(CC2CON=C(c3cc(C(F)(F)F)ncc3Oc3cccc(C(F)(F)F)c3)N2)c(C)c1 (racemic)"
  property_name: "chromatographic logP"
  endpoint_result: 4.89
- molecule: "Cc1ccc(C2CON=C(c3cc(Cl)ncc3Oc3cccc(C(F)(F)F)c3)N2)s1 (racemic)"
  property_name: "chromatographic logP"
  endpoint_result: 3.87

Lab note: next molecule to report on.
Lookup: Return value of chromatographic logP for input FC(F)c1cccc(Oc2cnc(Cl)cc2C2=NOC[C@@H](Cc3ccc([C@H]4CCOC4)cc3Cl)N2)c1 (racemic) , no commentary.
Found: 3.81
